Listed here are variants together with their documented self-cleavage.
B1: CPEB3 Ribozyme (parent)
chain: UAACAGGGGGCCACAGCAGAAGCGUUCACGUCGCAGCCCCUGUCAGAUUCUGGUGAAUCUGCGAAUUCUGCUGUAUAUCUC

Variants of: B1
Test: self-cleavage, relative activity (ratio to wild type); higher = more cleavage; in vitro, sequencing

Record excerpt, results attached:
UAACAGGGGGCCACAGCAGAAGCGUUCACGUCGUAGCCCCUGUCAGGUUCUGGUGAAUCUGCGAAUUCUGCUGUAUAUCUC [C34U A47G]    0.43
UAACAGGGGGCCACAGCAGAAGCGUUCACGUCGCAGCCCCUGUCAGAUUCUGAUGAAUCUGCGAAUUCUGCGGUAUAUCUC [G53A U72G]    1.22
UAACAGGGGGCCACAGCAUAAGCGUUCACGUCGCAGCCCCUGUCAGAUUCUGGUGAAUCUGCGAAUACUGCUGUAUAUCUC [G19U U67A]    0.13

Give its self-cleavage value. Item: UAACAGGGGGCCACAGCAGAAGCGUUCACGUCGCAGCCCGUGUCAGAUUCUGGUGAAUCUGCGAGUUCUGCUGUAUAUCUC [C40G A65G] 0.35

Look up self-cleavage: UAACAGGGGGCCACAGCAGAAGCGUGCACGUCGCAGCCCCUGUCAGAUUCUGGUGAACCUGCGAAUUCUGCUGUAUAUCUC [U26G U58C] 0.36

Using the record for UAACAGGGGGCCACAGCAGAAGCGCUCACGUCGCAGCCCAUGUCAGAUUCUGGUGAAUCUGCGAAUUCUGCUGUAUAUCUC [U25C C40A] , report its self-cleavage. 0.15

Give the measured self-cleavage of UAACAGGGGGCCACAGCAGAAGCGUUCACGUCGCAGCCCCUGUCAGAUUCUGGUGAAUCUGAGAAAUCUGCUGUAUAUCUC [C62A U66A] . 0.48

# self-cleavage lookup, item UAACAGGGGUCCACAGCAGAAGCGUUCACGUCGCAGCCCCUGUCAGAUCCUGGUGAAUCUGCGAAUUCUGCUGUAUAUCUC [G10U U49C] 0.24

Can you share its self-cleavage? I mean this variant: UAACAAGGGGCCACAGCAGAAGCGUUCACGUCGCAGCCCCUGUCAGAUUCUGGUGAAUCUGCGAACUCUGCUGUAUAUCUC [G6A U66C] 0.29

Which self-cleavage is listed for UAACAGGGGGCCACAGCGGAAGCGUUCACGUCGCAGCCCUUGUCAGAUUCUGGUGAAUCUGCGAAUUCUGCUGUAUAUCUC [A18G C40U] ? 0.44

Reported self-cleavage, variant UAACAGGGGACCACAGCAGAAGCGUUCACGUCGUAGCCCCUGUCAGAUUCUGGUGAAUCUGCGAAUUCUGCUGUAUAUCUC [G10A C34U] : ____ 0.05

For the variant UAACAGGGGGCCACAGCAGAAGCGUUCACGUCGCAGCCCCUGUCAGAUUCUGGUAAAUCUGCGAAUUCUGCUGUAUAUCUC [G55A] , what self-cleavage is on record? 0.84

Request the reported self-cleavage associated with UAACAGGGGACCACAGCAGAAGCGUUCACGUCGCAGCCCCUGUCAGAUUCUGGUGAAUCUGCGAACUCUGCUGUAUAUCUC [G10A U66C] 0.2
